The measurements presented in this section are drawn from paper PMC9266914.

# Experimental Protocol: Cyclic voltammetry
# Type: physicochemical
# Protocol Conditions: CH2Cl2, NBu4PF6, Pt, 100 mV.s^−1
E1/2 −1/0, first value of cell (anodic peak) values by entry
Value Type: E1/2 −1/0, first value of cell (anodic peak)

| Compound | Experimental Result |
| --- | --- |
| CCCn1c2c(sc1=S)[Se][Au-]1([Se]c3sc(=S)n(CCC)c3[Se]1)[Se]2 [[AuSePr(=S)]^−1] | 0.54/− ** V vs. SCE |
| Cn1c2c(sc1=S)[S][Au-]1([S]c3sc(=S)n(C)c3[S]1)[S]2 [[AuSMe(=S)]^−1] | 0.51 V vs. SCE |
| CCn1c2c(sc1=[Se])[Se][Au-]1([Se]c3sc(=[Se])n(CC)c3[Se]1)[Se]2 [[AuSeEt(=Se)]^−1] | 0.43/− ** V vs. SCE |
| CCn1c2c(sc1=S)[S][Au-]1([S]c3sc(=S)n(CC)c3[S]1)[S]2 [[AuSEt(=S)]^−1] | 0.55 V vs. SCE |
| CCCn1c2c(sc1=S)[S][Au-]1([S]c3sc(=S)n(CCC)c3[S]1)[S]2 [[AuSPr(=S)]^−1] | 0.56 V vs. SCE |
| CCn1c2c(sc1=[Se])[S][Au-]1([S]c3sc(=[Se])n(CC)c3[S]1)[S]2 [[AuSEt(=Se)]^−1] | 0.40/− ** V vs. SCE |
| CCn1c2c(sc1=O)[S][Au-]1([S]c3sc(=O)n(CC)c3[S]1)[S]2 [[AuSEt(=O)]^−1] | 0.42 V vs. SCE |
| CCCCn1c2c(sc1=S)[S][Au-]1([S]c3sc(=S)n(CCCC)c3[S]1)[S]2 [[AuSBu(=S)]^−1] | 0.55 V vs. SCE |
| CCN1C(=C(C#N)C#N)SC2=C1[S][Au-]1([S]2)[S]C2=C([S]1)N(CC)C(=C(C#N)C#N)S2 [[AuSEt(=C(CN)2)]^−1] | 0.71 V vs. SCE |
| CCn1c2c(sc1=S)[Se][Au-]1([Se]c3sc(=S)n(CC)c3[Se]1)[Se]2 [[AuSeEt(=S)]^−1] | 0.52/− ** V vs. SCE |
| CC(C)n1c2c(sc1=S)[Se][Au-]1([Se]c3sc(=S)n(C(C)C)c3[Se]1)[Se]2 [[AuSeiPr(=S)]^−1] | 0.62 V vs. SCE |
| CCCn1c2c(sc1=[Se])[S][Au-]1([S]c3sc(=[Se])n(CCC)c3[S]1)[S]2 [[AuSPr(=Se)]^−1] | 0.45/− ** V vs. SCE |
